tested on: SK-OV-3; test: Cell viability assay, ovarian carcinoma cell line SK-OV-3; format: cell-based; conditions: Homo sapiens, SK-OV-3, SK-OV-3 ovarian carcinoma cell line
readoutType: IC50

Name the recorded IC50 of the compound listed here: COc1c(O)ccc2c(=O)cc(-c3ccc(CCCCNCCNCCCN)cc3)oc12 [SND211] < 20 µM

###

tested on: CH-17-0098; assay: PDX cytotoxicity assay, bile duct PDX CH-17-0098; assay type: cell-based
readoutType: IC50 (µM)
The answer is to be given in µM; state only the numeric part.

Consider the compound COc1c(O)ccc2c(=O)cc(-c3ccc(CCCCN4CCCCC4)cc3)oc12 [SND148] . State its measured IC50. 13.9

###

test system: HN-13-0020; experiment: PDX cytotoxicity assay, head and neck PDX HN-13-0020; assay type: cell-based
readoutType: IC50 (µM)
Only the number, expressed in µM, is required.

Quote IC50 with test system HN-13-0020 for COc1c(O)ccc2c(=O)cc(-c3ccc(CNCCCCNCCCN)cc3)oc12 2.7

###

tested on: MeWo; experiment: Cell viability assay, melanoma cell line MeWo; assay type: cell-based; conditions: Homo sapiens
readoutType: IC50 (µM)
Only the number, expressed in µM, is required.

Determine its reported IC50: COc1c(O)ccc2c(=O)cc(-c3ccc(CCCCNCCNCCCN)cc3)oc12 [SND211] 5.3

Supply reported IC50 belonging to this molecule: NCCCNCCCCNCCCCc1ccc(-c2cc(=O)c3ccc4c(c3o2)OCO4)cc1 [SND392] 9.8

Give the reported value of IC50 for this record: CN(CCCCc1ccc(-c2cc(=O)c3ccc4c(c3o2)OCO4)cc1)CCCN1CCCCC1 [SND391] 1.9

###

target: RSK2(Kin.Dom.1-N-terminal) (Homo sapiens, UniProt P51812)
Sequence (P51812 68-327 limits assumed): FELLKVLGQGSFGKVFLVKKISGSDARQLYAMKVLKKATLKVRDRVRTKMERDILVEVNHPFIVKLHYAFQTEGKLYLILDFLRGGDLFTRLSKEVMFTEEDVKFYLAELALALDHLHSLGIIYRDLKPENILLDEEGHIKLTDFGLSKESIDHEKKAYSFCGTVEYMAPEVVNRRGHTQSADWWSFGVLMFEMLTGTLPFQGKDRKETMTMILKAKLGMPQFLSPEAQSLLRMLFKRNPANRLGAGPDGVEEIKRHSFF
readoutType: pKd
Keep in mind that pKd stands for -log10 of concentration in molar terms.

Look up and report measured pKd for this entry: COc1c(O)ccc2c(=O)cc(-c3ccc(CNCCCCNCCCN)cc3)oc12 5.85

###

Test system: CH-17-0091
Assay: PDX cytotoxicity assay, bile duct PDX CH-17-0091
Type: cell-based
Protocol: PDX-derived cell cultures were obtained from tumors explanted from mice and isolated by mechanical and enzymatic dissociation. […] Cells were harvested and seeded in 96-wells plates at a density of 1.25 to 5×10^3 cells/well for cytotoxicity assays. […] Cell viability was assessed before drugs' addition (T0) and 5 days after test molecules addition by measuring ATP cell content using CellTiter-Glo® Luminescent Cell Viability Assay (Promega) according to the manufacturer's instructions. […]
readoutType: IC50
Remember to follow the number with its unit.

Give reported IC50 value for COc1c(O)ccc2c(=O)cc(-c3ccc(CNCCCCNCCCN)cc3)oc12 [SND164] 13.8 µM

###

Test system: NCI-H441
Assay: Cell viability assay, mucoepidermoid pulmonary and adenocarcinoma, NCI-H441
Assay type: cell-based
Conditions: Homo sapiens
Experimental: Antitumor activity of the compounds and doxorubicin as a positive control was assessed by using the CellTiter-Blue Cell Viability Assay (Promega, #G8082) or CellTiter-Glow® Luminescent Cell Viability assay (Promega # G7572) according to the manufacturer's instructions. The compounds were tested at 5 or 6 concentrations in half-log increments (highest concentration 30 μM-100 μM) in duplicate or triplicate well conditions. […]
For each record, write down the corresponding pIC50.
Scale: pIC50 equals -log10([C]), with [C] in mol/L.

Look up and report pIC50, with NCI-H441 as system, for CCN(CCCCc1ccc(-c2cc(=O)c3ccc4c(c3o2)OCO4)cc1)Cc1ccccc1OC 5.49

// fetch pIC50 for CN(CCCCc1ccc(-c2cc(=O)c3ccc4c(c3o2)OCO4)cc1)CCCN1CCCCC1 ; system: NCI-H441 5.92

Output reported pIC50 of the compound NCCCNCCCCNCCCCc1ccc(-c2cc(=O)c3ccc4c(c3o2)OCO4)cc1 on NCI-H441. 5.27

###

system: ST-02-0322; assay: PDX cytotoxicity assay, stomach PDX ST-02-0322; format: cell-based
readoutType: IC50 (µM)
Entry rule: numbers only, all in µM.

Identify measured IC50 associated with COc1c(O)ccc2c(=O)cc(-c3ccc(CNCCCCNCCCN)cc3)oc12 5.45

###

test system: H69AR; test: Cell viability assay, resistant small cell lung carcinoma cell line H69AR; format: cell-based; conditions: Homo sapiens, H69AR, H69AR multiple drug resistant small cell lung carcinoma cell line
pIC50: −log10 of the molar value.
readoutType: pIC50

Output pIC50 of COc1c(O)ccc2c(=O)cc(-c3ccc(CCCCN4CCCC4)cc3)oc12 > 5.30

Give the reported value of pIC50 for this record: COc1c(O)ccc2c(=O)cc(-c3ccc(CCCCN4CCCCC4)cc3)oc12 > 5.30

Quickly give me recorded pIC50 for COc1c(O)ccc2c(=O)cc(-c3ccc(CCCCN4CCOCC4)cc3)oc12 > 5.30

###

Tested on: MIA-Pa-Ca-2
Assay: Cell viability assay, pancreatic carcinoma cell line MIA-Pa-Ca-2
Assay type: cell-based
Conditions: Homo sapiens, MIA PaCa-2; MIA-Pa-Ca-2 pancreatic carcinoma cell line
Procedure: Antitumor activity of the compounds and doxorubicin as a positive control was assessed by using the CellTiter-Blue Cell Viability Assay (Promega, #G8082) or CellTiter-Glow® Luminescent Cell Viability assay (Promega # G7572) according to the manufacturer's instructions. The compounds were tested at 5 or 6 concentrations in half-log increments (highest concentration 30 μM-100 μM) in duplicate or triplicate well conditions. […]
Exercise: state measured pIC50 for each of the compounds provided.
// scale note: pIC50 = -log10(conc_M); give the bare number

Consider the compound COc1c(O)ccc2c(=O)cc(-c3ccc(CCCCN(C)C)cc3)oc12 and give its recorded pIC50. 5.64

Fill in pIC50 for record COc1c(O)ccc2c(=O)cc(-c3ccc(CCCCN4CCCCC4)cc3)oc12 5.66

Check the records and state pIC50 for COc1c(O)ccc2c(=O)cc(-c3ccc(CCCCN4CCOCC4)cc3)oc12 5.69

For COc1c(O)ccc2c(=O)cc(-c3ccc(CCCCN(C)CCN4CCCCC4)cc3)oc12 , write its pIC50. 6.06

Answer with the recorded pIC50 for the compound listed here: COc1c(O)ccc2c(=O)cc(-c3ccc(CCCCN4CCN(C)CC4)cc3)oc12 6.00

Recall and state the measured pIC50 for COc1c(O)ccc2c(=O)cc(-c3ccc(CCCCN4CCCC4)cc3)oc12 . 5.30

###

system: A375; test: Cell viability assay, melanoma cell line A375; assay type: cell-based; settings: Homo sapiens, A-375
Structures can show the parent of a compound that is named as a salt.
readoutType: IC50 (µM)
Give the quantity in µM, number only.

State the measured IC50 (A375) of CN(CCCc1ccc(-c2cc(=O)c3ccc(O)c(O)c3o2)cc1)CCN1CCN(C)CC1 [SND173, trihydrochloride] 10

Return reported IC50 for target or system A375, item CN(CCCCc1ccc(-c2cc(=O)c3ccc4c(c3o2)OCO4)cc1)C12CC3CC(CC(C3)C1)C2 . 2.7

Please tell me the measured IC50 for COc1c(O)ccc2c(=O)cc(-c3ccc(CCCCNCCNCCCN)cc3)oc12 ; system: A375. 1.8

State measured IC50 of the compound CN(CCCCc1ccc(-c2cc(=O)c3ccc4c(c3o2)OCO4)cc1)CCCN1CCCCC1 with A375. 1.3

###

biological target: PIM2 (Homo sapiens, UniProt Q9P1W9); construct: purchased Eurofins (KINOMEscan assay service); host or cells: E. coli BL21-derived (T7 phage) or HEK-293; assay: KINOMEscan competition binding assay, PIM2
Sequence (Q9P1W9 whole entry): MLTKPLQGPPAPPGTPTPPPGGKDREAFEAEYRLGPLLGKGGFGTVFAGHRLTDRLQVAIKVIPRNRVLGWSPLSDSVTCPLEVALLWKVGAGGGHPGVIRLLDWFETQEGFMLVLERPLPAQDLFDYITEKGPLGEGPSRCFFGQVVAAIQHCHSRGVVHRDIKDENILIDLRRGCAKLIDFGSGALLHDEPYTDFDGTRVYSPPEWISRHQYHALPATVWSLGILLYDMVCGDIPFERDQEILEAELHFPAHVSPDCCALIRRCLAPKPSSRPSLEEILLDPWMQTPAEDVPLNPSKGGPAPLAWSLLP
readoutType: Kd
Your reply should be a number followed by the unit it is expressed in.

Provide one value: measured Kd of COc1c(O)ccc2c(=O)cc(-c3ccc(CNCCCCNCCCN)cc3)oc12 [SND164] 630 nM

###

test system: MOLT-16; assay: Cell viability assay, leukaemia cell line MOLT-16; format: cell-based; settings: Homo sapiens; MOLT-16 leukaemia cell line
readoutType: pIC50
Keep it numeric: pIC50 is minus log10 of the concentration in mol/L.

Give reported pIC50 for COc1c(O)ccc2c(=O)cc(-c3ccc(CNCCCCNCCCN)cc3)oc12 (MOLT-16) 5.36

###

For each record, write down the corresponding pIC50.
system: MDA-MB-468; test: Cell viability assay, breast carcinoma cell line MDA-MB-468; type: cell-based; details: Homo sapiens; MDA-MB-468 breast carcinoma cell line
pIC50 is a log-scale quantity: -log10 of the concentration expressed in molar.

Dear colleague, please send me the reported pIC50 for CN(CCCCc1ccc(-c2cc(=O)c3ccc4c(c3o2)OCO4)cc1)CCCN1CCCCC1 when you can. 5.92

For CCN(CCCCc1ccc(-c2cc(=O)c3ccc4c(c3o2)OCO4)cc1)Cc1ccccc1OC , write its pIC50. 5.42

Please give the documented pIC50 of CN(CCCCc1ccc(-c2cc(=O)c3ccc4c(c3o2)OCO4)cc1)C12CC3CC(CC(C3)C1)C2 5.49

Cited source for all entries: patent US20240132461A1
